Measured Emax, listed per entry for reference.
target: F508delCFTR (Homo sapiens, UniProt P13569, DEL508-508); construct: expressed in transfected cells; host or cells: CFBE41o- human lung-derived epithelial cells (CFBE4lo-F508delCFTR-HRP), doxycycline-inducible; experiment: Cell Surface Expression-Horse Radish Peroxidase (CSE-HRP) Assay; format: cell-based; details: without co-corrector; maximum at any tested concentration, normalized to on-plate positive control; read-out: Maximum % activity (without co-corrector);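 note: percent of the 2 µM on-plate positive control corrector response above DMSO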
Sequence (P13569 with tags, fused parts or gaps DEL508-508): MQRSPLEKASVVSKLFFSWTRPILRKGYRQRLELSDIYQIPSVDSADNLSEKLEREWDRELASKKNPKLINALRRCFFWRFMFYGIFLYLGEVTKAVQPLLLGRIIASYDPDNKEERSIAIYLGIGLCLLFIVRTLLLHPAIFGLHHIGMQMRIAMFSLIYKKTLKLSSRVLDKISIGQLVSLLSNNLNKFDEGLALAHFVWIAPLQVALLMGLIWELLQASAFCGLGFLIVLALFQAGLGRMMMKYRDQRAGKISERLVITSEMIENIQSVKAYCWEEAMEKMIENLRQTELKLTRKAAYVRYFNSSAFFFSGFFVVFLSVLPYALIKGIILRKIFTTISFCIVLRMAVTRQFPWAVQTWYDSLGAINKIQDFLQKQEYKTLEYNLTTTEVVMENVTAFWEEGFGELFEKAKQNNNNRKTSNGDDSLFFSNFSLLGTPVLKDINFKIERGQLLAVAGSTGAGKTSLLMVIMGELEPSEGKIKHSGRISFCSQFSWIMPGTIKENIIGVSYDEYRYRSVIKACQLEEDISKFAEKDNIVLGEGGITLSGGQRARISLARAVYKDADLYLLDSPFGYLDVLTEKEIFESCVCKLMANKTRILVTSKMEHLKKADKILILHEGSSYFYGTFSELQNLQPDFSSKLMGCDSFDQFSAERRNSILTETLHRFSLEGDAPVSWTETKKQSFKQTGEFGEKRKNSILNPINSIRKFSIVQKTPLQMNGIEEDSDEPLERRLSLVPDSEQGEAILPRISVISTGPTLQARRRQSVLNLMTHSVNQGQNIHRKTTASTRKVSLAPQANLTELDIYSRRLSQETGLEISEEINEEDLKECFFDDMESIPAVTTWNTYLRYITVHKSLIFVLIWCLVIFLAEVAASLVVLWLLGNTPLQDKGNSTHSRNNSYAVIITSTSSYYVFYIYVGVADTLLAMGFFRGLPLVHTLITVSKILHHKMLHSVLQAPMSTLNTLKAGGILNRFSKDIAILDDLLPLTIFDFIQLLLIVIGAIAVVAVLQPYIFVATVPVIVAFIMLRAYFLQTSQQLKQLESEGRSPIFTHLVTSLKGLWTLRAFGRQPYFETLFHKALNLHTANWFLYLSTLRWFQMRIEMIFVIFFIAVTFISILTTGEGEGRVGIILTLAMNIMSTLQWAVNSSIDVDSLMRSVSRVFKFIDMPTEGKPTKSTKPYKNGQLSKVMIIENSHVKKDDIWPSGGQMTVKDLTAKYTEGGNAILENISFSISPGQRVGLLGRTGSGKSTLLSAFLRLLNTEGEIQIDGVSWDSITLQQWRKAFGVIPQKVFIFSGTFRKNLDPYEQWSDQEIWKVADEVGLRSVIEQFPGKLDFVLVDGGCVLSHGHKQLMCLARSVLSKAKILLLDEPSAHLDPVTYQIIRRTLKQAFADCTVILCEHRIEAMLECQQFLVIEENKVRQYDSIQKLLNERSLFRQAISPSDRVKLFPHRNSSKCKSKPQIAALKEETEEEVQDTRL
PARAMETER_MEASURED: Emax

{"MOLECULE": "COc1ccc(C(C)(C)C)cc1CN[C@H]1[C@H](C(C)(C)C)[C@@H](C(=O)O)N(C(=O)C2CCc3ccccc3O2)[C@H]1c1cccnc1N(C)C (single isomer, unassigned)", "OBSERVED_VALUE": "100 to 200%"}
{"MOLECULE": "COc1cc(C(C)(C)O)ccc1CN[C@H]1[C@H](C(C)(C)C)[C@@H](C(=O)O)N(C(=O)C2CCCCC2)[C@H]1c1ccccc1", "OBSERVED_VALUE": "< 100%"}
{"MOLECULE": "COc1ccc(C(C)(C)C)cc1CN[C@H]1[C@H](C(C)(C)C)[C@@H](C(=O)O)N(C(=O)OC(C)C)[C@H]1c1cccnc1N(C)C", "OBSERVED_VALUE": "100 to 200%"}
{"MOLECULE": "COc1ccc(Cl)cc1CN[C@H]1[C@H](C(C)(C)C)[C@@H](C(=O)O)N(C(=O)C2CCCCC2)[C@H]1c1ncccc1OC (racemic)", "OBSERVED_VALUE": "< 100%"}
{"MOLECULE": "COc1ccc(C(C)(C)C)cc1CN[C@H]1[C@H](C(C)(C)OC)[C@@H](C(=O)O)N(C(=O)C2CCCCC2)[C@H]1c1cccnc1OC", "OBSERVED_VALUE": "> 200%"}
{"MOLECULE": "COc1ncc(C2CC2)cc1CN[C@H]1[C@H](C(C)(C)C)[C@@H](C(=O)O)N(C(=O)[C@@H]2CCCCO2)[C@H]1c1ccccc1C(C)C", "OBSERVED_VALUE": "> 200%"}
{"MOLECULE": "COc1ccc(C(F)(F)F)cc1CN[C@H]1[C@H](C(C)(C)C)[C@@H](C(=O)O)N(C(=O)C2CCCCC2)[C@H]1c1cccnc1N(C)C", "OBSERVED_VALUE": "100 to 200%"}
{"MOLECULE": "COc1ccc(C(C)(C)C)cc1CN[C@H]1[C@H](C(C)(C)C)[C@@H](C(=O)O)N(C(=O)OC(C)C)[C@H]1c1ccccc1C(C)C", "OBSERVED_VALUE": "> 200%"}
{"MOLECULE": "COc1ccc(C23CC(C2)C3)cc1CN[C@H]1[C@H](C(C)(C)C)[C@@H](C(=O)O)N(C(=O)C2CCCCC2)[C@H]1c1cccnc1OC(F)F", "OBSERVED_VALUE": "100 to 200%"}
{"MOLECULE": "COc1ncc(C(F)(F)F)cc1CN[C@H]1[C@H](C(C)(C)C)[C@@H](C(=O)O)N(C(=O)[C@@H]2CCCCO2)[C@H]1c1ccccc1C1CC1", "OBSERVED_VALUE": "> 200%"}
{"MOLECULE": "COc1ccc(C(C)(C)C)cc1CN[C@H]1[C@H](C(C)(C)C)[C@@H](C(=O)O)N(C(=O)C2C3CCCC32)[C@H]1c1cccnc1N(C)C (stereo partly shown)", "OBSERVED_VALUE": "> 200%"}
{"MOLECULE": "COc1ccc(C(C)(C)C)cc1CN[C@H]1[C@H](C(C)(C)C)[C@@H](C(=O)O)N(C(=O)[C@@H]2CCCCO2)[C@H]1c1ccccc1C", "OBSERVED_VALUE": "> 200%"}
{"MOLECULE": "COc1ncc(Cc2cccc(C#N)c2)cc1CN[C@H]1[C@H](C(C)(C)C)[C@@H](C(=O)O)N(C(=O)C2CCCCC2)[C@H]1c1ccccc1", "OBSERVED_VALUE": "100 to 200%"}
{"MOLECULE": "COc1ncc(C(F)(F)F)cc1CN[C@H]1[C@H](C(C)(C)C)[C@@H](C(=O)O)N(C(=O)OC(C)C)[C@H]1c1ccccc1C(C)C", "OBSERVED_VALUE": "> 200%"}
{"MOLECULE": "COc1ccc(Br)nc1CN[C@H]1[C@H](C(C)(C)C)[C@@H](C(=O)O)N(C(=O)C2CCCCC2)[C@H]1c1ccccc1", "OBSERVED_VALUE": "100 to 200%"}
{"MOLECULE": "COc1ccc(C(C)(C)C)cc1CN[C@H]1[C@H](C(C)(C)C)[C@@H](C(=O)O)N(C(=O)C2Cc3ccccc3O2)[C@H]1c1cccnc1OC (single isomer, unassigned)", "OBSERVED_VALUE": "100 to 200%"}
{"MOLECULE": "COc1ncc(C(C)(C)C)cc1CN[C@H]1[C@H](C(C)(C)C)[C@@H](C(=O)O)N(C(=O)C2CCCCC2)[C@H]1c1ccccc1", "OBSERVED_VALUE": "> 200%"}
{"MOLECULE": "COc1ccc(Cl)cc1CN[C@H]1[C@H](C(C)(C)C)[C@@H](C(=O)O)N(C(=O)C2CCCCC2)[C@H]1c1ccccc1OC", "OBSERVED_VALUE": "100 to 200%"}
{"MOLECULE": "CC(C)(C)c1ccc(CN[C@H]2[C@H](C(C)(C)C)[C@@H](C(=O)O)N(C(=O)[C@@H]3CCCC(F)(F)C3)[C@H]2c2ccccc2)c(Cl)n1", "OBSERVED_VALUE": "< 100%"}
